I'd appreciate it if you could supply pKi values for the items below.
Biological target: T1, secreted, soluble furin (human, UniProt P09958 108-715, limits assumed)
T1 construct: Secreted, soluble construct; also called human furin
T1 sequence (P09958 108-715 limits assumed): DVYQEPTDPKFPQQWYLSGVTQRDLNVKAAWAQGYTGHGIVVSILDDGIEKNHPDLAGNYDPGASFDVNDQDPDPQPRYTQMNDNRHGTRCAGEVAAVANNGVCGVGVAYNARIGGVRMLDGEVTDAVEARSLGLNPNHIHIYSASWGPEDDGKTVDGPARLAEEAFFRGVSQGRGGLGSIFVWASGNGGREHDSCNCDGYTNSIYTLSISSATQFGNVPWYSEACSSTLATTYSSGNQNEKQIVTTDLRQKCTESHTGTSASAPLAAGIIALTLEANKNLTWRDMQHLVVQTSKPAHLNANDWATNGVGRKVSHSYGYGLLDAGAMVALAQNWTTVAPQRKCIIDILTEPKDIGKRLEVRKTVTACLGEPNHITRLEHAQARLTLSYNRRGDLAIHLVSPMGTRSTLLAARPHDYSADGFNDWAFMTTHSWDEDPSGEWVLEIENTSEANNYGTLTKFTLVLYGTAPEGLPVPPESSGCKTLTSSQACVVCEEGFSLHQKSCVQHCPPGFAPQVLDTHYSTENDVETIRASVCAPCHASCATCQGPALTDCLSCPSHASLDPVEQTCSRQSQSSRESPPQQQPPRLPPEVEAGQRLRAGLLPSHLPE
Assay: enzyme inhibition, purified variant
Description: Affinities of eglin variants with secreted, soluble Kex2 (hereafter “Kex2”; Brenner, C. and Fuller, R. S. (1992) Proc. Natl. Acad. Sci. USA 89: 922-926) and secreted, soluble furin (hereafter, “furin”; Bravo, D. A. et al (1994) J. Biol. Chem. 269: 25830-25837; and Komiyama & Fuller (2000) Biochemistry 39: 15156-15165) were measured by incubating variants with the enzymes (˜0.5 to 2.0 nM) for 45 min to 1 h at 21° C. in one of two enzyme assay buffers. […]
In plain terms, pKi is the concentration in mol/L turned into minus its base-10 logarithm.

Lab note: measured pKi of R4R1-eglin (designed binder, N-terminal Met removed; also called Tyr49-R4R1-; D33Y49) SMGSELKSFPEVVGKTVDQAREYFTLHYPQYDVYFLPEGSRVTRDLRYNRVRVFYNPGTNVVNHVPHVG was 8.60

Lab note: measured pKi of R4K1-eglin (designed binder, N-terminal Met removed; also called R4K1-template) SMGSELKSFPEVVGKTVDQAREYFTLHYPQYDVYFLPEGSRVTKDLRYNRVRVFYNPGTNVVNHVPHVG was 7.42

Lab note: measured pKi of Tyr49Ala-R4R1-eglin (designed binder, R4R1 template; N-terminal Met removed; also called Ala49-R4R1-) SMGSELKSFPEVVGKTVDQAREYFTLHYPQYDVYFLPEGSRVTRDLRANRVRVFYNPGTNVVNHVPHVG was 8.89
